- assay_remarks: Carr's index and Hausner ratio (predicted flowability)
- Format: physicochemical
- experimental_parameters: calculated from bulk and tapped volumes
property: Carr's index

1) N=C(N)NCCC(=O)O.N=C(N)NCCC(=O)O.O=C(O)CCC(=O)O [β-GPA succinate (2:1)]
14.3

I = N=C(N)NCCC(=O)O.O=C(O)C(=O)O [β-GPA oxalate (1:1)]
II = N=C(N)NCCC(=O)O [β-GPA, β-Guanidinopropionic acid, reference compound]
III = N=C(N)NCCC(=O)O.N=C(N)NCCC(=O)O.O=C(O)/C=C/C(=O)O [β-GPA fumarate (2:1)]
query: List from greatest to least Carr's index. A complete answer lists every label in the requested sequence.
result: II, I, III
(II: 37.9, I: 18.7, III: 5.9)

---

- assay_remarks: Dynamic vapor sorption (DVS) with XRPD of the post-DVS sample
- Type: physicochemical
- experimental_parameters: post DVS sample
property: solid form by XRPD after the DVS experiment

1) N=C(N)NCCC(=O)O.O=C(O)C(=O)O [β-GPA oxalate (1:1)]
retained their XRPD
2) N=C(N)NCCC(=O)O.N=C(N)NCCC(=O)O.O=C(O)CCC(=O)O [β-GPA succinate (2:1)]
retained their XRPD

// provenance: patent US9884813B1
